Below is a list of entries, each paired with its recorded MIC value.
Test system: Escherichia coli
assayOverview: Antimicrobial activity against Escherichia coli after 24 hrs
Format: functional

## Input // fetch Escherichia coli MIC for C[C@H](CCC(=O)N/N=C/c1ccc([N+](=O)[O-])cc1)[C@H]1CC[C@H]2[C@@H]3[C@H](O)C[C@@H]4C[C@H](O)CC[C@]4(C)[C@H]3C[C@H](O)[C@]12C
## Output 7.81 µg/mL

Consider the record given below.
## Input // fetch Escherichia coli MIC for C=CC1=C(C(=O)O)N2C(=O)[C@@H](NC(=O)/C(=N\OCC(=O)O)c3csc(N)n3)[C@H]2SC1 [CEFIXIME]
## Output 1.96 µg/mL

###

Below is a list of entries, each paired with its recorded MIC value.
Tested on: Enterococcus faecalis
assayOverview: Antimicrobial activity against Enterococcus faecalis after 24 hrs
Assay type: functional

Worked examples, 3 compounds total:
## Input Requested read-out: MIC. Entry: COc1ccc(OC)c(/C=N/NC(=O)CC[C@@H](C)[C@H]2CC[C@H]3[C@@H]4[C@H](O)C[C@@H]5C[C@H](O)CC[C@]5(C)[C@H]4C[C@H](O)[C@]23C)c1
## Output 15.6 µg/mL

## Input Requested read-out: MIC. Entry: COc1cccc(/C=N/NC(=O)CC[C@@H](C)[C@H]2CC[C@H]3[C@@H]4[C@H](O)C[C@@H]5C[C@H](O)CC[C@]5(C)[C@H]4C[C@H](O)[C@]23C)c1OC
## Output 15.6 µg/mL

## Input Requested read-out: MIC. Entry: C[C@H](CCC(=O)N/N=C/c1ccc(Br)cc1)[C@H]1CC[C@H]2[C@@H]3[C@H](O)C[C@@H]4C[C@H](O)CC[C@]4(C)[C@H]3C[C@H](O)[C@]12C
## Output 3.91 µg/mL

Consider the record given below.
## Input Requested read-out: MIC. Entry: C[C@H](CCC(=O)NN)[C@H]1CC[C@H]2[C@@H]3[C@H](O)C[C@@H]4C[C@H](O)CC[C@]4(C)[C@H]3C[C@H](O)[C@]12C [CHOLYLHYDRAZIDE]
## Output 31.2 µg/mL

###

Test system: Escherichia coli
assayOverview: Antimicrobial activity against Escherichia coli after 24 hrs
Assay type: functional
Active and inactive are the calls of the source. No cut-off for these calls is given here.
valueKind: MIC

## Input Requested read-out: MIC. Entry: COc1ccc(/C=N/NC(=O)CC[C@@H](C)[C@H]2CC[C@H]3[C@@H]4[C@H](O)C[C@@H]5C[C@H](O)CC[C@]5(C)[C@H]4C[C@H](O)[C@]23C)cc1
## Output 7.81 µg/mL

## Input Requested read-out: MIC. Entry: C[C@H](CCC(=O)N/N=C/c1ccco1)[C@H]1CC[C@H]2[C@@H]3[C@H](O)C[C@@H]4C[C@H](O)CC[C@]4(C)[C@H]3C[C@H](O)[C@]12C
## Output inactive

## Input Requested read-out: MIC. Entry: C[C@H](CCC(=O)N/N=C/c1cc2ccccc2[nH]1)[C@H]1CC[C@H]2[C@@H]3[C@H](O)C[C@@H]4C[C@H](O)CC[C@]4(C)[C@H]3C[C@H](O)[C@]12C
## Output inactive

###

Tested on: Escherichia coli
assayOverview: Antimicrobial activity against Escherichia coli after 24 hrs
Type: functional
Activity calls are given as the source filed them. No cut-off for these calls is given here.
valueKind: MIC

Worked examples, 4 compounds total:
## Input Requested read-out: MIC. Entry: C[C@H](CCC(=O)NN)[C@H]1CC[C@H]2[C@@H]3[C@H](O)C[C@@H]4C[C@H](O)CC[C@]4(C)[C@H]3C[C@H](O)[C@]12C [CHOLYLHYDRAZIDE]
## Output inactive

## Input Requested read-out: MIC. Entry: N[C@@H](C(=O)N[C@@H]1C(=O)N2C(C(=O)O)=C(Cl)CS[C@H]12)c1ccccc1 [CEFACLOR ANHYDROUS]
## Output inactive

## Input Requested read-out: MIC. Entry: C[C@H](CCC(=O)N/N=C/c1ccccn1)[C@H]1CC[C@H]2[C@@H]3[C@H](O)C[C@@H]4C[C@H](O)CC[C@]4(C)[C@H]3C[C@H](O)[C@]12C
## Output 7.81 µg/mL

## Input Requested read-out: MIC. Entry: C[C@H](CCC(=O)N/N=C/c1ccc(Br)cc1)[C@H]1CC[C@H]2[C@@H]3[C@H](O)C[C@@H]4C[C@H](O)CC[C@]4(C)[C@H]3C[C@H](O)[C@]12C
## Output 3.91 µg/mL

New cases:
## Input Requested read-out: MIC. Entry: Cc1ccc(/C=N/NC(=O)CC[C@@H](C)[C@H]2CC[C@H]3[C@@H]4[C@H](O)C[C@@H]5C[C@H](O)CC[C@]5(C)[C@H]4C[C@H](O)[C@]23C)cc1
## Output 7.81 µg/mL

###

Tested on: Enterococcus faecalis
assayOverview: Antimicrobial activity against Enterococcus faecalis after 24 hrs
Format: functional
valueKind: MIC

## Input Requested read-out: MIC. Entry: C[C@H](CCC(=O)N/N=C/c1cc2ccccc2[nH]1)[C@H]1CC[C@H]2[C@@H]3[C@H](O)C[C@@H]4C[C@H](O)CC[C@]4(C)[C@H]3C[C@H](O)[C@]12C
## Output 3.91 mg/L

Consider the record given below.
## Input Requested read-out: MIC. Entry: C[C@H](CCC(=O)O)[C@H]1CC[C@H]2[C@@H]3[C@H](O)C[C@@H]4C[C@H](O)CC[C@]4(C)[C@H]3C[C@H](O)[C@]12C
## Output 31.2 mg/L

###

Tested on: Escherichia coli
assayOverview: Antimicrobial activity against Escherichia coli after 24 hrs
Assay type: functional
Below is a list of entries, each paired with its recorded MIC value.

## Input Requested read-out: MIC. Entry: C[C@H](CCC(=O)N/N=C/c1cccc(Cl)c1)[C@H]1CC[C@H]2[C@@H]3[C@H](O)C[C@@H]4C[C@H](O)CC[C@]4(C)[C@H]3C[C@H](O)[C@]12C
## Output 3.91 µg/mL

Consider the record given below.
## Input Requested read-out: MIC. Entry: C[C@H](CCC(=O)N/N=C/c1ccc(Cl)cc1)[C@H]1CC[C@H]2[C@@H]3[C@H](O)C[C@@H]4C[C@H](O)CC[C@]4(C)[C@H]3C[C@H](O)[C@]12C
## Output 3.91 µg/mL

###

Below is a list of entries, each paired with its recorded MIC value.
Tested on: Escherichia coli
assayOverview: Antimicrobial activity against Escherichia coli after 24 hrs
Type: functional

## Input Requested read-out: MIC. Entry: C[C@H](CCC(=O)N/N=C/c1ccc(Cl)c([N+](=O)[O-])c1)[C@H]1CC[C@H]2[C@@H]3[C@H](O)C[C@@H]4C[C@H](O)CC[C@]4(C)[C@H]3C[C@H](O)[C@]12C
## Output 7.81 mg/L

New cases:
## Input Requested read-out: MIC. Entry: COc1cccc(/C=N/NC(=O)CC[C@@H](C)[C@H]2CC[C@H]3[C@@H]4[C@H](O)C[C@@H]5C[C@H](O)CC[C@]5(C)[C@H]4C[C@H](O)[C@]23C)c1OC
## Output 3.91 mg/L

## Input Requested read-out: MIC. Entry: C[C@H](CCC(=O)N/N=C/c1ccc(C#N)cc1)[C@H]1CC[C@H]2[C@@H]3[C@H](O)C[C@@H]4C[C@H](O)CC[C@]4(C)[C@H]3C[C@H](O)[C@]12C
## Output 7.81 mg/L

## Input Requested read-out: MIC. Entry: C[C@H](CCC(=O)O)[C@H]1CC[C@H]2[C@@H]3[C@H](O)C[C@@H]4C[C@H](O)CC[C@]4(C)[C@H]3C[C@H](O)[C@]12C [CHOLIC ACID]
## Output 7.81 mg/L

###

Tested on: Escherichia coli
assayOverview: Antimicrobial activity against Escherichia coli after 24 hrs
Type: functional
Activity calls are given as the source filed them. The calls are words filed in the database; no cut-off is given here.
valueKind: MIC

Worked examples, 4 compounds total:
## Input Requested read-out: MIC. Entry: COc1ccc(OC)c(/C=N/NC(=O)CC[C@@H](C)[C@H]2CC[C@H]3[C@@H]4[C@H](O)C[C@@H]5C[C@H](O)CC[C@]5(C)[C@H]4C[C@H](O)[C@]23C)c1
## Output inactive

## Input Requested read-out: MIC. Entry: C[C@H](CCC(=O)N/N=C/c1ccccc1)[C@H]1CC[C@H]2[C@@H]3[C@H](O)C[C@@H]4C[C@H](O)CC[C@]4(C)[C@H]3C[C@H](O)[C@]12C
## Output 3.91 µg/mL

## Input Requested read-out: MIC. Entry: C[C@H](CCC(=O)N/N=C/c1ccccc1Br)[C@H]1CC[C@H]2[C@@H]3[C@H](O)C[C@@H]4C[C@H](O)CC[C@]4(C)[C@H]3C[C@H](O)[C@]12C
## Output 7.81 µg/mL

## Input Requested read-out: MIC. Entry: COc1ccc2[nH]cc(/C=N/NC(=O)CC[C@@H](C)[C@H]3CC[C@H]4[C@@H]5[C@H](O)C[C@@H]6C[C@H](O)CC[C@]6(C)[C@H]5C[C@H](O)[C@]34C)c2c1
## Output inactive

Consider the record given below.
## Input Requested read-out: MIC. Entry: C[C@H](CCC(=O)N/N=C/c1cccs1)[C@H]1CC[C@H]2[C@@H]3[C@H](O)C[C@@H]4C[C@H](O)CC[C@]4(C)[C@H]3C[C@H](O)[C@]12C
## Output inactive
